Biological target: SARS-CoV-2 spike receptor-binding domain (2019-nCoV RBD-SD1, residues 319–566) (SARS-CoV-2, UniProt P0DTC2)
observable: binding result

• 93 (VHH) VHH: QVQLVESGGGSVQAGGSLRLSCAASGHIAQIEYLGWFRQAPGKEREGVAALSTNQGYTYYADSVKGRFTVSLDNAKNTVYLQMNSLKPEDTALYYCAAARWGRTYPLSYMAYTYWGQGTQVTVS = binds
• Sybody 14 (VHH) VHH: QVQLVESGGGLVQAGGSLRLSCAASGFPVATAEMVWYRQAPGKEREWVAAIMSAGQETEYADSVKGRFTISRDNAKNTVYLQMNSLKPEDTAVYYCYVWVGKSYIGQGTQVTVS = binds
